tested on: Hirsutella rhossiliensis; assay: Effect of carbon source on growth, sporulation and spore germination; conditions: carbon source; isolate JA16-1; 5 weeks
quantity_name: Sporulation 10^3/cm^2, on agar

{"columns": ["compound", "target_of_assay", "result"],
 "data": [
  ["OC[C@H]1O[C@@](CO)(O[C@H]2O[C@H](CO)[C@@H](O)[C@H](O)[C@H]2O)[C@@H](O)[C@@H]1O", "Hirsutella rhossiliensis", "6.9 10^3/cm^2"],
  ["O=C[C@H](O)[C@@H](O)[C@@H](O)[C@H](O)CO [D(+)galactose]", "Hirsutella rhossiliensis", "7.4 10^3/cm^2"],
  ["OC[C@H]1O[C@H](OCC2O[C@@H](O)[C@H](O)[C@@H](O)[C@@H]2O)[C@H](O)[C@@H](O)[C@H]1O (some centres unmarked)", "Hirsutella rhossiliensis", "13.1 10^3/cm^2"],
  ["O=C[C@@H](O)[C@H](O)[C@H](O)CO [D-(−)-arabinose]", "Hirsutella rhossiliensis", "27.0 10^3/cm^2"],
  ["OC[C@H]1O[C@@H](O[C@H]2[C@H](O)[C@@H](O)[C@H](O)O[C@@H]2CO)[C@H](O)[C@@H](O)[C@@H]1O [D-(+)-cellubiose]", "Hirsutella rhossiliensis", "88.8 10^3/cm^2"],
  ["OC[C@@H](O)[C@@H](O)[C@H](O)[C@H](O)CO", "Hirsutella rhossiliensis", "17.3 10^3/cm^2"],
  ["OC[C@H]1O[C@H](O[C@H]2[C@H](O)[C@@H](O)[C@H](O)O[C@@H]2CO)[C@H](O)[C@@H](O)[C@@H]1O [Maltose monohydrate]", "Hirsutella rhossiliensis", "26.6 10^3/cm^2"],
  ["O=C(O)CC(O)(CC(=O)O)C(=O)O", "Hirsutella rhossiliensis", "7.4 10^3/cm^2"]
]}

* * *

Each entry below carries its recorded Spore germination %, on agar.
test system: Hirsutella rhossiliensis; assay: Effect of carbon source on growth, sporulation and spore germination; conditions: carbon source; isolate OWVT-1; after incubation for 24 hr

{"columns": ["molecule", "Spore germination %, on agar [%]"],
 "data": [
  ["O=C[C@H](O)[C@H](O)[C@H](O)CO [D(−) ribose]", 45.6],
  ["OC[C@H]1O[C@H](O[C@H]2O[C@H](CO)[C@@H](O)[C@H](O)[C@H]2O)[C@H](O)[C@@H](O)[C@@H]1O [D(+) trehalose]", 62.2],
  ["O=C(O)CC(O)(CC(=O)O)C(=O)O", 52.2],
  ["O=C(CO)[C@@H](O)[C@H](O)[C@@H](O)CO [L-(−)-sorbose]", 26.7],
  ["OC[C@H]1O[C@H](OCC2O[C@@H](O)[C@H](O)[C@@H](O)[C@@H]2O)[C@H](O)[C@@H](O)[C@H]1O (stereo partly shown)", 48.9],
  ["O=C[C@H](O)[C@@H](O)[C@H](O)CO [D(+)xylose]", 26.7],
  ["O.OC[C@H]1O[C@@H](O[C@H]2[C@H](O)[C@@H](O)[C@@H](O)O[C@@H]2CO)[C@H](O)[C@@H](O)[C@H]1O [a-lactose monohydrate]", 42.2],
  ["O=C[C@H](O)[C@@H](O)[C@H](O)[C@H](O)CO [D-(+)-glucose]", 56.7],
  ["O=C[C@@H](O)[C@H](O)[C@H](O)CO [D-(−)-arabinose]", 40.0],
  ["OC[C@H]1O[C@@H](O[C@H]2[C@H](O)[C@@H](O)[C@H](O)O[C@@H]2CO)[C@H](O)[C@@H](O)[C@@H]1O [D-(+)-cellubiose]", 52.2],
  ["O=C(CO)[C@@H](O)[C@H](O)[C@H](O)CO [D(−)fructose]", 50.0],
  ["OC[C@H]1O[C@H](O[C@H]2[C@H](O)[C@@H](O)[C@H](O)O[C@@H]2CO)[C@H](O)[C@@H](O)[C@@H]1O [Maltose monohydrate]", 46.7],
  ["O=C[C@H](O)[C@@H](O)[C@@H](O)[C@H](O)CO [D(+)galactose]", 43.3],
  ["OC[C@H]1O[C@@](CO)(O[C@H]2O[C@H](CO)[C@@H](O)[C@H](O)[C@H]2O)[C@@H](O)[C@@H]1O", 52.2],
  ["OC[C@@H](O)[C@@H](O)[C@H](O)[C@H](O)CO", 60.0],
  ["OC[C@@H](O)[C@@H](O)[C@H](O)[C@@H](O)CO", 56.7]
]}

These data points were gathered from patent US7384629B2.
